Cited source: BigSolDB 2.1

- Particulars: in propylene glycol, 308.2 K
Quantity: solubility (mole fraction)
Form: value (number only, do not type unit).

## Task I am curious: what solubility (mole fraction) value has been reported for `O=C1CN=C(c2ccccc2Cl)c2cc([N+](=O)[O-])ccc2N1` ?
## Result 0.00108

---

- Particulars: in PEG-200, 308.2 K
Quantity: solubility (mole fraction)
Form: value (number only, do not type unit).

## Task I am curious: what solubility (mole fraction) value has been reported for `O=C1CN=C(c2ccccc2Cl)c2cc([N+](=O)[O-])ccc2N1` ?
## Result 0.0134

---

- Particulars: in PEG-200, 303.2 K
Quantity: solubility (mole fraction)

## Task I am curious: what solubility (mole fraction) value has been reported for `O=C1CN=C(c2ccccc2Cl)c2cc([N+](=O)[O-])ccc2N1` ?
## Result 0.01

---

- Particulars: in ethanol, 298.2 K
Quantity: solubility (mole fraction)
Form: value (number only, do not type unit).

## Task I am curious: what solubility (mole fraction) value has been reported for `O=C1CN=C(c2ccccc2Cl)c2cc([N+](=O)[O-])ccc2N1` ?
## Result 0.000348
